# Tested on: Mus musculus
# MEASUREMENT_NOTES: Toxic CNS activity in C57BL/6 mouse assessed as locomotor activity by measuring exploratory activity counts at 10 mg/kg, ig by open-field test (reference value: 94.50 +/- 6.18 counts)
# Type: toxicity, organism-based
# Parameters: dose 10 mg/kg, route intragastric
# REPORTED_CONDITIONS: in vivo, po
MEASURED_PROPERTY: Activity
Hey, just send me the number, nothing else.

> print(dat)
                    smiles.representation  quantitative.result
1      COc1cc(/C=C/C(=O)NCC(C)C)cc2c1OCO2               100.92
2   CC(C)CNC(=O)c1cc2c(c(C(F)(F)F)c1)OCO2                 93.2
3  O=C(c1cc2c(c(C(F)(F)F)c1)OCO2)N1CCCCC1                 87.4

Now let's try a different one.
Data request: Entry under review: `CC(C)CNC(=O)/C=C/c1cc(Cl)c2c(c1)OCO2` . Reported Activity?
Data returned: 94.75
